System: Hamster Tracheal Organ Culture (keratinization)
TEST_DESCRIPTION: tracheal organ culture assay (reversal of keratinization in hamster tracheal organ culture)
Assay type: cell-based
CONDITION_DETAILS: Conc 10^-10 M; percent of active cultures
OBSERVATION_TYPE: Reversal of Keratinization in Hamster Tracheal Organ Culture, Active/Total Cultures (%)
Field: numeric (%). Do not append units.

Exercise: Look at this compound and give its reported Reversal of Keratinization in Hamster Tracheal Organ Culture, Active/Total Cultures (%). CC1=C(/C=C/C(C)=C/c2ccc(C(=O)O)cc2F)C(C)(C)CCC1 [Example 6]
Solution: 27

Exercise: Record: CCOC(=O)c1ccc(/C=C(C)/C=C/C2=C(C)CCCC2(C)C)c(F)c1 [Example 5]
Solution: 56

Exercise: Record: CCOC(=O)c1ccc(/C(F)=C(C)/C=C/C2=C(C)CCCC2(C)C)cc1 [Example 1]
Solution: 46

Exercise: Record: CCOC(=O)c1ccc(/C=C(C)/C=C/C2=C(C)CCCC2(C)C)c(OC)c1 [Example 3]
Solution: 57

Exercise: Record: CC1=C(/C=C/C(C)=C(\F)c2ccc(C(=O)O)cc2)C(C)(C)CCC1 [Example 2]
Solution: 38

###

System: Hamster Tracheal Organ Culture (keratinization)
TEST_DESCRIPTION: tracheal organ culture assay (reversal of keratinization in hamster tracheal organ culture)
Format: cell-based
CONDITION_DETAILS: Conc 10^-8 M; percent of active cultures
OBSERVATION_TYPE: Reversal of Keratinization in Hamster Tracheal Organ Culture, Active/Total Cultures (%)
Field: numeric (%). Do not append units.

Exercise: Look at this molecule and give its reported Reversal of Keratinization in Hamster Tracheal Organ Culture, Active/Total Cultures (%). CC1=C(/C=C/C(C)=C(\F)c2ccc(C(=O)O)cc2)C(C)(C)CCC1
Solution: 100

Exercise: Record: CCOC(=O)c1ccc(/C(F)=C(C)/C=C/C2=C(C)CCCC2(C)C)cc1
Solution: 92

Exercise: Record: CCOC(=O)c1ccc(/C=C(C)/C=C/C2=C(C)CCCC2(C)C)c(OC)c1
Solution: 100

Exercise: Record: CCOC(=O)c1ccc(/C=C(C)/C=C/C2=C(C)CCCC2(C)C)c(F)c1
Solution: 100

Exercise: Record: CC1=C(/C=C/C(C)=C/c2ccc(C(=O)O)cc2F)C(C)(C)CCC1
Solution: 100
